src = the supplement of paper PMC7877785

# maps each entry to its self-splicing fitness (ln)
test.description: self-splicing fitness, log relative to wild type (ln ratio); higher = more splicing; Tetrahymena group I intron in knt gene, E. coli kanamycin selection, DiMSum; sequences stand for … in CUCUCU…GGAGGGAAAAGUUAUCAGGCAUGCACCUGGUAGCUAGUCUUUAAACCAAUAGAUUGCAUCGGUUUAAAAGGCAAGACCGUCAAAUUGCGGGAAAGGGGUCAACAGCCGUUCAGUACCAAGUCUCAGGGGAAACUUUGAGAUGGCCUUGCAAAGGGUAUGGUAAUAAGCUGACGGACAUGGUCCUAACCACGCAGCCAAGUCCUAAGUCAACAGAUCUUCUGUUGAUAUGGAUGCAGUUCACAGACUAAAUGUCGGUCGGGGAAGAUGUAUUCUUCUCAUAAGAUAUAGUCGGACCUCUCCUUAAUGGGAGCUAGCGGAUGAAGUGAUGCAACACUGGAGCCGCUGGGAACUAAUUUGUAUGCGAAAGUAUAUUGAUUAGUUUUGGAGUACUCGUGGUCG;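 further: selection with 25 µg/mL kanamycin versus none on LB agar overnight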
condition.set: 37 °C
Reply briefly: the number, and no unit.

Ask: I am curious: what self-splicing fitness (ln) value has been reported for GAGAAGCAAUAUUACGAGCG ?
Reply: -0.106

Ask: Proceed to CACAAGCAAUAUUACGCACU
Reply: -1.33

Ask: Proceed to UCUUAGCAAUAUUACGUGCG
Reply: -1.67

Ask: Proceed to GAGUAGCAAUAUUACGUUUA
Reply: -1.63

Ask: Proceed to UAGCAGCAAUAUUACGGAGG
Reply: -2.6

Ask: Proceed to ACAAAGCAAUAUUACGAGUA
Reply: -1.7
